The reported numbers originate from paper PMC6820745.

- subject-of-test: T1, hen egg lysozyme (Gallus gallus (hen), UniProt P00698)
- T1 construct: hen egg lysozyme (lysozyme C), bought from Wako Pure Chemical; also called HEL; source: bought: Wako Pure Chemical (Cat. No. 126-02671), used without further purification
- experimental-details: SPR; Biacore T200; HEL immobilised on CM5 chip (200 RU); VHH flowed over; 25 °C; PBS with 0.005% Tween 20; global fit to a 1:1 binding model
- settings: both partners purified
pKd: −log10 of the molar value.
We begin with a simple list: items and their reported pKd.
measured-metric: pKd

* D3-L11 D115A (VHH, as the VHH chain of m2 with the stated change; source: E. coli BL21(DE3), purified (Ni-NTA, SEC)) VHH: DVQLVESGGGSVQAGGSLRLSCAASGSTDSIEYMTWFRQAPGKAREGVAALYTHTGNTYYTDSVKGRFTISQDKAKNMAYLRMDSVKSEDTAIYTCGATRKYVPVRFALDQSSYAYWGQGTQVTVSS | 9.81
* D3-L11 (VHH, VHH D3-L11 specific for HEL; Synthetic gene in pRA2 with a pelB signal peptide at the N-terminus and a His6-tag at the C-terminus; also called WT; WT antibody; source: E. coli BL21(DE3), purified (Ni-NTA, SEC)) VHH: DVQLVESGGGSVQAGGSLRLSCAASGSTDSIEYMTWFRQAPGKAREGVAALYTHTGNTYYTDSVKGRFTISQDKAKNMAYLRMDSVKSEDTAIYTCGATRKYVPVRFALDQSSYDYWGQGTQVTVSS | 9.89
* D3-L11 S113A (VHH, as the VHH chain of m2 with the stated change; source: E. coli BL21(DE3), purified (Ni-NTA, SEC)) VHH: DVQLVESGGGSVQAGGSLRLSCAASGSTDSIEYMTWFRQAPGKAREGVAALYTHTGNTYYTDSVKGRFTISQDKAKNMAYLRMDSVKSEDTAIYTCGATRKYVPVRFALDQSAYDYWGQGTQVTVSS | 8.79
* D3-L11 R106A (VHH, as the VHH chain of m2 with the stated change; source: E. coli BL21(DE3), purified (Ni-NTA, SEC)) VHH: DVQLVESGGGSVQAGGSLRLSCAASGSTDSIEYMTWFRQAPGKAREGVAALYTHTGNTYYTDSVKGRFTISQDKAKNMAYLRMDSVKSEDTAIYTCGATRKYVPVAFALDQSSYDYWGQGTQVTVSS | 8.78
